# credit: the supplement of paper PMC10567573

B1: RIPK4 (parent)
chain: VIDLFDEQGLSALHLAAQGRHAQT

Variants of: B1
Measurement protocol: protein stability index of a GFP-peptide fusion (GPS, HEK-293T) (PSI 1-6); higher = more stable;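 note: lentivirally expressed fusions sorted by FACS into six bins by GFP to DsRed ratio, PSI derived from sequencing read proportions per bin multiplied by bin number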
Test context: c terminus: a fixed tail appended
Quick rule for you: protein stability index at 3 or higher means y, lower means n.

| Mutation id | Group |
| --- | --- |
| A12Q | y |
| Q18A | n |
| Q23R | y |
| L13Q | y |
| D3F | y |
| R20T | y |
| G19V | n |
| D3G | n |
| D6C | n |
| V1S | y |
| L15G | y |
| E7L | n |
| E7F | n |
| I2V | y |
| A17I | n |
| A22P | n |
| A12W | n |
| V1Y | n |
| G19H | n |
| D3N | n |
| L13E | y |
| A17G | n |
| L15N | y |
| Q23W | n |
| I2W | n |
| E7C | n |
| R20L | n |
| A22W | n |
| I2P | y |
| A17K | n |
| H21W | n |
| L10R | y |
| H14R | y |
| T24D | y |
| H21E | y |
| D6N | n |
| L10G | y |
| E7W | n |
| Q23D | y |
| A16C | n |
| A22F | n |
| G19M | n |
| R20I | n |
| A16E | y |
| S11H | n |
| H21D | y |
| A12H | n |
| L10E | y |
| G19T | n |
| Q23M | n |
| L15D | y |
| G19K | y |
| F5T | y |
| H14N | y |
| L4S | y |
| H21K | y |
| I2R | y |
| V1A | y |
| T24A | n |
| Q18F | n |
| G9D | y |
| D3A | n |
| F5I | n |
| Q8A | n |
| H21Y | n |
| A17F | n |
| T24K | y |
| D3P | n |
| V1P | y |
| L4Y | y |
| A17H | n |
| R20P | n |
| A16T | y |
| L10I | n |
| I2N | y |
| V1N | y |
| T24M | n |
| L15C | n |
| T24P | n |
| Q23C | n |
| H14G | n |
| D6T | n |
| D3Y | n |
| G9A | n |
| Q8W | n |
| H21R | n |
| Q23E | y |
